Ref: patent US12383556B2

- test.name: First-in-human Part 3 food effect PK, single 60 mg dose
- Format: in vivo
- run.conditions: human, whole blood, oral, 60 mg, single dose 60 mg, FED; Mean; read-out: Tmax
- Method: […] Pharmacokinetic samples were obtained in blood and evaluated in all subjects at all dose levels. The samples from placebo subjects were not analyzed. […] Compound (I) concentrations were determined in blood by a validated LC-MS/MS method.
property.name: Tmax (h)
Give the value, in units of h, as a plain number.

-- ask Dear colleague, I am looking for the recorded Tmax of the following compound: C=CC(=O)N(C)CCOc1c(N)ncnc1-c1cc(F)cc(NC(=O)c2ccc(C3CC3)cc2F)c1C [Compound of Formula (I)]
-- reply 3.42

====

- test.name: First-in-human Part 2 multiple ascending dose q.d. blood and urine PK
- Assay type: in vivo
- run.conditions: human, blood, oral, 25 mg, 25 mg qd, Day 12, blood; Mean ± SD; read-out: Vss/F
property.name: Vd/F

-- ask Value lookup for Vd/F; key = C=CC(=O)N(C)CCOc1c(N)ncnc1-c1cc(F)cc(NC(=O)c2ccc(C3CC3)cc2F)c1C
-- reply 407 L

====

- test.name: First-in-human Part 2 multiple ascending dose q.d. blood and urine PK
- Type: in vivo
- run.conditions: human, blood and urine, oral, 100 mg, 100 mg qd, Day 12; Mean ± SD; read-out: Renal clearance
- Protocol: […] Pharmacokinetic samples were obtained in blood and evaluated in all subjects at all dose levels. The samples from placebo subjects were not analyzed. […] Compound (I) concentrations were determined in blood by a validated LC-MS/MS method.
property.name: CL renal (mL/min)
API: value field is a number in mL/min; no unit string.

-- ask Look up CL renal for this molecule: C=CC(=O)N(C)CCOc1c(N)ncnc1-c1cc(F)cc(NC(=O)c2ccc(C3CC3)cc2F)c1C
-- reply 21.6

====

- test.name: First-in-human Part 2 multiple ascending dose q.d. blood and urine PK
- Type: in vivo
- run.conditions: human, blood, oral, 50 mg, 50 mg qd, Day 12, blood; Median (Min-Max)
property.name: Tmax

-- ask I have this compound here, C=CC(=O)N(C)CCOc1c(N)ncnc1-c1cc(F)cc(NC(=O)c2ccc(C3CC3)cc2F)c1C , and I need its recorded Tmax.
-- reply 1 h

====

- test.name: First-in-human Part 2 multiple ascending dose q.d. blood and urine PK
- Assay type: in vivo
- run.conditions: human, blood, oral, 600 mg, 600 mg qd, Day 1, blood; Median (Min-Max); read-out: AUC0-24
property.name: AUC(0-t)

-- ask Item C=CC(=O)N(C)CCOc1c(N)ncnc1-c1cc(F)cc(NC(=O)c2ccc(C3CC3)cc2F)c1C has what recorded AUC(0-t)?
-- reply 932 ng·h/mL

====

- test.name: First-in-human Part 2 multiple ascending dose q.d. blood and urine PK
- Type: in vivo
- run.conditions: human, whole blood, oral, 10 mg, 10 mg qd, Day 12, blood; Median (Min-Max); read-out: AUC0-24
property.name: AUC(0-t) (ng·h/mL)
Answer with a number only, understood to be in ng·h/mL.

-- ask I would be grateful if you could share the reported AUC(0-t) for C=CC(=O)N(C)CCOc1c(N)ncnc1-c1cc(F)cc(NC(=O)c2ccc(C3CC3)cc2F)c1C .
-- reply 23.6

====

- test.name: First-in-human Part 3 food effect PK, single 60 mg dose
- Type: in vivo
- run.conditions: human, blood, oral, 60 mg, single dose 60 mg, FED; Geomean; read-out: Tmax
property.name: Tmax (h)
Give the number; h is assumed, so skip it.

-- ask Could you share which Tmax value was measured for C=CC(=O)N(C)CCOc1c(N)ncnc1-c1cc(F)cc(NC(=O)c2ccc(C3CC3)cc2F)c1C ?
-- reply 3.18

====

- test.name: First-in-human Part 2 multiple ascending dose q.d. blood and urine PK
- Format: in vivo
- run.conditions: human, blood, oral, 100 mg, 100 mg qd, Day 12, blood; Mean ± SD; read-out: Vss/F
property.name: Vd/F (L)
Give just the numeric value; L need not be written.

-- ask Param item = C=CC(=O)N(C)CCOc1c(N)ncnc1-c1cc(F)cc(NC(=O)c2ccc(C3CC3)cc2F)c1C ; retrieve measured Vd/F.
-- reply 1910

====

- test.name: First-in-human Part 2 multiple ascending dose q.d. blood and urine PK
- Type: in vivo
- run.conditions: human, blood, oral, 10 mg, 10 mg qd, Day 12, blood; Median (Min-Max); read-out: Cmax
property.name: Cmax (ng/mL)
Give the quantity in ng/mL, number only.

-- ask # query: Cmax of entry C=CC(=O)N(C)CCOc1c(N)ncnc1-c1cc(F)cc(NC(=O)c2ccc(C3CC3)cc2F)c1C
-- reply 17.2

====

- test.name: First-in-human Part 1 single ascending dose blood PK
- Assay type: in vivo
- run.conditions: human, blood, oral; single dose 100 mg; read-out: terminal half-life (converted)
property.name: half-life
Answer format: number, then unit.

-- ask Need half-life, item C=CC(=O)N(C)CCOc1c(N)ncnc1-c1cc(F)cc(NC(=O)c2ccc(C3CC3)cc2F)c1C
-- reply 4 h

====

- test.name: First-in-human Part 2 multiple ascending dose q.d. blood and urine PK
- Type: in vivo
- run.conditions: human, blood, oral, 600 mg, 600 mg qd, Day 12, blood; Mean ± SD; read-out: Vss/F
property.name: Vd/F (L)
Answer format: numeric, L implied, no suffix.

-- ask Query (compound): C=CC(=O)N(C)CCOc1c(N)ncnc1-c1cc(F)cc(NC(=O)c2ccc(C3CC3)cc2F)c1C ; field requested: Vd/F
-- reply 7130

====

- test.name: First-in-human Part 2 multiple ascending dose q.d. blood and urine PK
- Type: in vivo
- run.conditions: human, blood, oral, 100 mg, 100 mg qd, Day 12, blood; Median (Min-Max); read-out: Cmax
property.name: Cmax (ng/mL)
Write the answer as a number in ng/mL, unit excluded.

-- ask Requested read-out: Cmax. Entry: C=CC(=O)N(C)CCOc1c(N)ncnc1-c1cc(F)cc(NC(=O)c2ccc(C3CC3)cc2F)c1C
-- reply 205

====

- test.name: First-in-human Part 2 multiple ascending dose q.d. blood and urine PK
- Assay type: in vivo
- run.conditions: human, blood, oral, 25 mg, 25 mg qd, Day 12, blood; Median (Min-Max); read-out: Cmax
property.name: Cmax (ng/mL)
Please state the figure in ng/mL; there is no need to write the unit.

-- ask Reported Cmax, compound C=CC(=O)N(C)CCOc1c(N)ncnc1-c1cc(F)cc(NC(=O)c2ccc(C3CC3)cc2F)c1C : ____
-- reply 78.4

====

- test.name: First-in-human Part 2 multiple ascending dose q.d. blood and urine PK
- Format: in vivo
- run.conditions: human, blood, oral, 10 mg, 10 mg qd, Day 1, blood; Median (Min-Max); read-out: MRT
property.name: MRT (min)
Numbers only; they are read as min.

-- ask Which MRT is listed for C=CC(=O)N(C)CCOc1c(N)ncnc1-c1cc(F)cc(NC(=O)c2ccc(C3CC3)cc2F)c1C ?
-- reply 46

====

- test.name: First-in-human Part 2 multiple ascending dose q.d. blood and urine PK
- Format: in vivo
- run.conditions: human, blood, oral, 100 mg, 100 mg qd, Day 1, blood; Median (Min-Max); read-out: MRT
property.name: MRT (h)
Write the value in h as a bare number.

-- ask Which MRT reading was recorded for the molecule C=CC(=O)N(C)CCOc1c(N)ncnc1-c1cc(F)cc(NC(=O)c2ccc(C3CC3)cc2F)c1C [Compound of Formula (I)] ?
-- reply 2.16

====

- test.name: First-in-human Part 2 multiple ascending dose q.d. blood and urine PK
- Format: in vivo
- run.conditions: human, blood and urine, oral, 400 mg, 400 mg qd, Day 12; Mean ± SD; read-out: Renal clearance
property.name: CL renal (mL/min)
// note: answer is a bare numeric in mL/min

-- ask Fill blank: measured CL renal of the molecule C=CC(=O)N(C)CCOc1c(N)ncnc1-c1cc(F)cc(NC(=O)c2ccc(C3CC3)cc2F)c1C is ____.
-- reply 16.9

====

- test.name: First-in-human Part 2 multiple ascending dose q.d. blood and urine PK
- Assay type: in vivo
- run.conditions: human, blood, oral; multiple doses, typical; read-out: blood concentration at 24 hours post last dose
property.name: concentration at 24 h

-- ask Need concentration at 24 h of C=CC(=O)N(C)CCOc1c(N)ncnc1-c1cc(F)cc(NC(=O)c2ccc(C3CC3)cc2F)c1C [Compound of Formula (I)] , thanks.
-- reply < 1 ng/mL

====

- test.name: First-in-human Part 2 multiple ascending dose q.d. blood and urine PK
- Assay type: in vivo
- run.conditions: human, blood, oral, 10 mg, 10 mg qd, Day 1, blood; Median (Min-Max); read-out: Cmax
property.name: Cmax
# include the unit after the value

-- ask Give the measured Cmax of C=CC(=O)N(C)CCOc1c(N)ncnc1-c1cc(F)cc(NC(=O)c2ccc(C3CC3)cc2F)c1C [Compound of Formula (I)] .
-- reply 8.03 ng/mL
